Every entry's value here was drawn from PubChem BioAssay AID1578.

Experiment: NOD1 signaling inhibitors, primary screen, cell-based, luminescence, uHTS (AID 1578);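 also: HEK-293T reporter cells stimulated with the NOD1 agonist gamma-tri-DAP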
Details: NOD1-driven NF-kB luciferase reporter cells, at 4 µM, stronger effect = higher value
Among all 290,000 compounds or so, about 3,000 (1%) were called active. Shown is part of a subset that was picked to be rich in actives.
Please enter Fulfilled where inhibition is greater than or equal to -20%, and Not fulfilled where it is lower.

Entry "Cc1nn(Cc2ccc(C(=O)N3CCN(C(=O)c4ccco4)CC3)o2)c(C)c1[N+](=O)[O-]" : is its inhibition no less than -20%?
Not fulfilled

Entry "COc1ccccc1N1CCN(C(=O)CSc2nc3ccccc3nc2N2CCC(C)CC2)CC1" : is its inhibition no less than -20%?
Fulfilled

Entry "CC(=O)Nc1nnc(CSCc2ccccc2F)s1" : is its inhibition no less than -20%?
Fulfilled

Entry "CC(C)CC(=O)N/N=C/c1c(N)n(C)c(=O)n(C)c1=O" : is its inhibition no less than -20%?
Fulfilled

Entry "COc1ccc(N)cc1S(=O)(=O)Nc1ccccc1Cl" : is its inhibition no less than -20%?
Fulfilled

Entry CCOC(=O)CC1C(=O)NCCN1c1nc2ccc(C)cn2c(=O)c1/C=C1\SC(=S)N(CC(C)C)C1=O (centres undefined) : is its inhibition no less than -20%?
Fulfilled

Entry CCOC(=O)CC1C(=O)NCCN1c1nc2c(C)cccn2c(=O)c1/C=C1\SC(=S)N(C(C)CC)C1=O (centres undefined) : is its inhibition no less than -20%?
Fulfilled

Entry "COc1cc(OC)cc(C(=O)O/N=C(\N)c2ccccn2)c1" : is its inhibition no less than -20%?
Fulfilled

Entry "Cc1cccc(N2CCN(c3ccc4cc(S(=O)(=O)N5CCCCC5)ccc4n3)CC2)c1C" : is its inhibition no less than -20%?
Fulfilled

Entry Cc1ccc(C(=O)C(C)N2C(=O)NC(C)(c3ccccc3)C2=O)cc1 (centres undefined) : is its inhibition no less than -20%?
Not fulfilled

Entry "O=S(=O)(N/N=C\c1ccc2c(c1)OCO2)c1ccc(F)cc1" : is its inhibition no less than -20%?
Fulfilled

Entry "CC1(C)CC(=O)C(C=NCC2CCNCC2)=C(O)C1" : is its inhibition no less than -20%?
Fulfilled

Entry "CC(C)C[C@H](NC(=O)OC(C)(C)C)c1n[nH]c(=S)n1N" : is its inhibition no less than -20%?
Fulfilled

Entry "CCNC(=S)N/N=C1\C(=O)c2cccc3cccc1c23" : is its inhibition no less than -20%?
Fulfilled

Entry "Cc1cc(C(F)(F)F)nn1CC(=O)NNC(=S)NCC(C)C" : is its inhibition no less than -20%?
Fulfilled

Entry "CC1(C)CN=C(N(C(=O)Nc2ccccc2)c2ccccc2F)S1" : is its inhibition no less than -20%?
Fulfilled

Entry "NC(=O)NC(=O)CSc1ccccc1" : is its inhibition no less than -20%?
Not fulfilled

Entry "COc1ccc(C(=O)NCS(=O)(=O)c2ccc(C)cc2)cc1" : is its inhibition no less than -20%?
Fulfilled

Entry CCN(C(=O)COC(=O)CSc1ccc([N+](=O)[O-])cc1)C1CCS(=O)(=O)C1 (centres undefined) : is its inhibition no less than -20%?
Not fulfilled

Entry "COc1ccc(Cn2c3ccc(OC)cc3c3nc4ccccc4nc32)cc1" : is its inhibition no less than -20%?
Not fulfilled

Entry "COc1cc(/C=C/CO)cc(OC)c1OC/C=C(\C)CCC=C(C)C" : is its inhibition no less than -20%?
Fulfilled

Entry "O=C(CCN1C(=O)c2ccccc2C1=O)N1CCOCC1" : is its inhibition no less than -20%?
Not fulfilled

Entry "COc1ccccc1N1CCN(C(=O)CSc2nc3ccccc3nc2N2CCCCC2)CC1" : is its inhibition no less than -20%?
Fulfilled

Entry "COc1ccc(OCCC(=O)N2CCOCC2)cc1" : is its inhibition no less than -20%?
Not fulfilled

Entry COC(=O)CCC(=O)N(C)CC1CCCN(CCc2cccc(C(F)(F)F)c2)C1 (centres undefined) : is its inhibition no less than -20%?
Fulfilled

Entry "COC(=O)NC(=C(Cl)Cl)S(=O)(=O)c1ccccc1" : is its inhibition no less than -20%?
Fulfilled

Entry CCCN1C(=O)/C(=C/c2c(N3CCNC(=O)C3CC(=O)OC)nc3c(C)cccn3c2=O)SC1=S (centres undefined) : is its inhibition no less than -20%?
Fulfilled

Entry "COc1cc(C(=O)NCCNC(=O)c2cc(OC)c(C)c(OC)c2)cc(OC)c1C" : is its inhibition no less than -20%?
Not fulfilled

Entry "CCOc1ccc(N(CC(=O)N2CCCCC2)S(=O)(=O)c2ccc(Cl)cc2)cc1" : is its inhibition no less than -20%?
Fulfilled

Entry "O=C(CC(CC(=O)c1ccccc1)c1ccccc1)c1ccccc1" : is its inhibition no less than -20%?
Fulfilled

Entry "CSc1nc(C)cc(OCCNS(=O)(=O)c2cc(C)ccc2C)n1" : is its inhibition no less than -20%?
Fulfilled

Entry CCCN1C(=O)/C(=C/c2c(N3CCNC(=O)C3CC(=O)OCC)nc3c(C)cccn3c2=O)SC1=S (centres undefined) : is its inhibition no less than -20%?
Fulfilled

Entry COC(=O)NC(NS(=O)(=O)c1ccccc1)(C(=O)OC)C(F)(F)F (centres undefined) : is its inhibition no less than -20%?
Fulfilled

Entry "O=C(Nc1ccccc1F)C1CCN(C(=O)NCc2ccccc2)CC1" : is its inhibition no less than -20%?
Fulfilled

Entry "Cc1ccc(C(=O)N(CC#N)CC#N)cc1C" : is its inhibition no less than -20%?
Fulfilled

Entry "O=C1CCCN1CCCNC(=S)Nc1ccc(Cl)cc1Cl" : is its inhibition no less than -20%?
Not fulfilled

Entry Cc1ccc(S(=O)(=O)C(CCC(=O)c2ccc(Cl)cc2)C(N)=O)cc1 (centres undefined) : is its inhibition no less than -20%?
Fulfilled

Entry COc1ccc(CCN2C(=NC(=O)C(C)C)SC3CS(=O)(=O)CC32)cc1OC (centres undefined) : is its inhibition no less than -20%?
Fulfilled

Entry CC1CN(CCc2ccccc2)c2nc3c(c(=O)n(C)c(=O)n3C)n2C1 (centres undefined) : is its inhibition no less than -20%?
Fulfilled

Entry "Cc1ccc(N(CCC#N)C(=O)CSc2ccc3c(c2)OCCO3)cc1" : is its inhibition no less than -20%?
Fulfilled

Entry "Cc1ccc(N(CCC#N)C(=O)CCl)cc1C" : is its inhibition no less than -20%?
Fulfilled

Entry "CCOc1ccc(C(=O)O/N=C(\N)c2ccccn2)cc1" : is its inhibition no less than -20%?
Fulfilled

Entry "CCOc1ccc(NS(=O)(=O)c2ccc(NS(=O)(=O)c3cccs3)cc2)cc1" : is its inhibition no less than -20%?
Fulfilled

Entry "Cc1cccc(N(Cc2ccccc2)C(=O)CCl)c1" : is its inhibition no less than -20%?
Not fulfilled

====

Assay: NOD1 signaling inhibitors, primary screen, cell-based, luminescence, uHTS (AID 1578);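 also: HEK-293T reporter cells stimulated with the NOD1 agonist gamma-tri-DAP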
Conditions: NOD1-driven NF-kB luciferase reporter cells, at 4 µM
Screen size: about 290,000 compounds; about 3,000 (1%) were called active. No stated cut-off is given here; in the data, active means inhibition mostly above about 36% (no sharp cut-off); inactive means mostly below about 34%. This is one part of a sample in which actives are shown more often than they occur.
Respond only with the outcome that fits, drawn from active, inactive

What is the recorded call for this molecule in the test? "Cc1ccc(C)c(C(=O)CN2C(=O)c3ccccc3C2=O)c1"
active

What is the recorded call for this molecule in the test? "CCCCCCCN(C(=O)CCl)c1cccc(C)c1"
active

What is the recorded call for this molecule in the test? "CCN1C(=O)/C(=c2\o/c(=C3\C=Cc4ccccc4N3CC)c(=O)n2CC)SC1=S"
inactive

What is the recorded call for this molecule in the test? "Cc1ccc(N(NC(=O)C(O)(c2ccccc2)c2ccccc2)C(=O)CCl)cc1"
active

What is the recorded call for this molecule in the test? "CCCCCCN(C(=O)CCl)c1ccccc1"
inactive

What is the recorded call for this molecule in the test? "CC1=CC(C)(C)N(C(=O)CN2C(=O)c3ccccc3C2=O)c2ccccc21"
inactive

What is the recorded call for this molecule in the test? "CCCC(O)(CCC)C(=O)NN(C(=O)CCl)c1cccc(C)c1"
active

What is the recorded call for this molecule in the test? "CC1=CC(C)(C)N(C(=O)CN2C(=O)c3ccccc3C2=O)c2ccc(C)cc21"
active

What is the recorded call for this molecule in the test? COc1cc(/C=C(\C#N)C(=O)NC2CCCCC2C)ccc1OS(=O)(=O)c1ccc(C)cc1 (stereo unspecified)
active

What is the recorded call for this molecule in the test? "Cc1ccc(C)c(C(=O)CN2Cc3ccccc3C2=O)c1"
inactive

What is the recorded call for this molecule in the test? "CCCC(O)(CCC)C(=O)NN(C(=O)CCl)c1ccccc1"
inactive

====

Would you kindly list inhibition for each of these compounds?
Assay: NOD1 signaling inhibitors, primary screen, cell-based, luminescence, uHTS (AID 1578);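 also: HEK-293T reporter cells stimulated with the NOD1 agonist gamma-tri-DAP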
Conditions: NOD1-driven NF-kB luciferase reporter cells, at 4 µM, stronger effect = higher value
Screen size: about 290,000 compounds; about 3,000 (1%) were called active. The sample as a whole holds a higher share of actives than the screen did.
Expressed in %, but write only the number.

Supply recorded inhibition for "O=C(NC1CCCCC1)c1ccc(S(=O)(=O)c2ccccc2Cl)c([N+](=O)[O-])c1" here.
91.4

Supply recorded inhibition for "COc1ccc(N/N=C(\C#N)C(N)=O)cc1" here.
-41.5

Supply recorded inhibition for "O=C(c1ccc(S(=O)(=O)Cc2ccccc2F)c([N+](=O)[O-])c1)N1CCCCCC1" here.
1

Supply recorded inhibition for "O=C(NC1CCCC1)c1ccc(Cl)c(S(=O)(=O)N2CCCCC2)c1" here.
10.6

Supply recorded inhibition for "Cc1ccc(C(=O)N2CCN(c3ccccc3)CC2)cc1S(=O)(=O)N1CCCC1" here.
3.9

Supply recorded inhibition for "Cc1cccc(NC(=O)NCC2CCN(c3ccc(S(=O)(=O)N4CCOCC4)cc3)CC2)c1" here.
-10.9

Supply recorded inhibition for "O=C(c1ccc(Cl)c(S(=O)(=O)N2CCCC2)c1)N1CCN(c2ccc(F)cc2)CC1" here.
0.4

Supply recorded inhibition for "C=CCN(Cc1cc(OC)ccc1OC)S(=O)(=O)N(C)C" here.
3.4

Supply recorded inhibition for "Cc1cc(C(=O)N2CCN(Cc3ccccc3)CC2)ccc1[N+](=O)[O-]" here.
0.5

Supply recorded inhibition for "O=C(c1ccc(S(=O)(=O)Cc2cc(F)ccc2F)c([N+](=O)[O-])c1)N1CCCC1" here.
5
